system: Rattus norvegicus; assay: Dose normalized AUC in Wistar Han rat at 1 mg/kg, po; format: ADME, organism-based; conditions: in vivo
Quantity Measured: AUC/dose (µM·kg·h/mg)

Worked set:
[[record]]
compound_structure = "Cc1nccc(N2CCC3(CCN(C[C@H](O)c4ccc5c(c4C)COC5=O)CC3)C2=O)n1"
assayed_target = "Rattus norvegicus"
quantity_measured = "AUC/dose"
quantitative_readout = 1.6

[[record]]
compound_structure = "COc1cc(N2CCC3(CCN(C[C@H](O)c4ccc5c(c4C)COC5=O)CC3)C2=O)ccn1"
assayed_target = "Rattus norvegicus"
quantity_measured = "AUC/dose"
quantitative_readout = 1.2

[[record]]
compound_structure = "Cc1cc(N2CCC3(CCN(C[C@H](O)c4ccc5c(c4C)COC5=O)CC3)C2=O)sn1"
assayed_target = "Rattus norvegicus"
quantity_measured = "AUC/dose"
quantitative_readout = 0.73


P: Cc1nsc(N2CCC3(CCN(C[C@H](O)c4ccc5c(c4C)COC5=O)CC3)C2=O)n1
Q: COc1nccc(N2CCC3(CCN(C[C@H](O)c4ccc5c(c4C)COC5=O)CC3)C2=O)n1
R: COc1nsc(N2CCC3(CCN(C[C@H](O)c4ccc5c(c4C)COC5=O)CC3)C2=O)n1
S: Cc1c([C@@H](O)CN2CCC3(CC2)CCN(c2ccncc2)C3=O)ccc2c1COC2=O
Problem: Sort low-to-high on AUC/dose, please. Answer format: the labels, ordered as requested.
Solution: S, P, R, Q

====

Reported Activity values for the following molecules.
system: Rattus norvegicus; assay: Antihypertensive activity in rat spontaneous hypertensive model assessed as change in systolic blood pressure at 3 mg/kg, po qd measured after 3 days; format: functional
Note: unit mmHg is implicit; provide only the numeric part.

Worked set:
[[record]]
compound_structure = "Cc1c([C@@H](O)CN2CCC3(CC2)CCN(c2ccns2)C3=O)ccc2c1COC2=O"
quantity_measured = "Activity"
units = "mmHg"
quantitative_readout = -6

[[record]]
compound_structure = "Cc1nccc(N2CCC3(CCN(C[C@H](O)c4ccc5c(c4C)COC5=O)CC3)C2=O)n1"
quantity_measured = "Activity"
units = "mmHg"
quantitative_readout = -11

[[record]]
compound_structure = "COc1nsc(N2CCC3(CCN(C[C@H](O)c4ccc5c(c4C)COC5=O)CC3)C2=O)n1"
quantity_measured = "Activity"
units = "mmHg"
quantitative_readout = -23


Item: Cc1nsc(N2CCC3(CCN(C[C@H](O)c4ccc5c(c4C)COC5=O)CC3)C2=O)n1 | Activity: -10

Item: Cc1c([C@@H](O)CN2CCC3(CC2)CCN(c2ccc(=O)n(C)n2)C3=O)ccc2c1COC2=O | Activity: -14

====

Biological target: ATP-sensitive inward rectifier potassium channel 1 (Homo sapiens, UniProt P48048)
Sequence (P48048 whole entry): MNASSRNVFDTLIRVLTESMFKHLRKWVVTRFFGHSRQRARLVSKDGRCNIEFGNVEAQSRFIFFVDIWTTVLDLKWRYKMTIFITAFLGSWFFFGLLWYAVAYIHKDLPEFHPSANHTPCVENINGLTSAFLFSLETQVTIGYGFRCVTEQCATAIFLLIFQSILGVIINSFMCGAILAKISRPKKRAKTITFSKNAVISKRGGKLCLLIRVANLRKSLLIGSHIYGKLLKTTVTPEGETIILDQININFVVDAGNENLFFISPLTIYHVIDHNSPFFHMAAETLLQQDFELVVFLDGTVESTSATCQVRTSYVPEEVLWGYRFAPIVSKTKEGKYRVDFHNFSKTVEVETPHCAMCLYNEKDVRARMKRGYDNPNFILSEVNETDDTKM
Experiment: Inhibition of human ROMK channel expressed in HEK293 cells after 30 mins by FLIPR based thallium flux assay
Type: cell-based
pIC50: −log10 of the molar value.
Quantity Measured: pIC50

[[record]]
compound_structure = "Cc1c([C@@H](O)CN2CCC3(CC2)CCN(c2ccns2)C3)ccc2c1COC2=O"
quantitative_readout = 7.57


1: Cc1c([C@@H](O)CN2CCC3(CC2)CCN(c2ccc(=O)n(C4CCCC4)n2)C3=O)ccc2c1COC2=O
2: Cc1c([C@@H](O)CN2CCC3(CC2)CN(c2ccns2)C(=O)O3)ccc2c1COC2=O
3: Cn1nc(N2CCC3(CCN(C[C@H](O)c4ccc(-n5cnnn5)nn4)CC3)C2=O)ccc1=O
4: Cc1c([C@@H](O)CN2CCC3(CC2)CCN(c2ccc(=O)n(C(F)F)n2)C3=O)ccc2c1COC2=O
Problem: Sort low-to-high on pIC50, please. Answer format: the labels, ordered as requested.
Solution: 2, 3, 4, 1

====

experiment: Volume of distribution at steady state in Wistar Han rat at 0.5 mg/kg, iv or 1 mg/kg, po; format: ADME, organism-based; conditions: in vivo, read-out: Vdss
Quantity Measured: Vd (L/kg)

Worked set:
[[record]]
compound_structure = "Cc1cc(N2CCC3(CCN(C[C@H](O)c4ccc5c(c4C)COC5=O)CC3)C2=O)sn1"
quantity_measured = "Vd"
quantitative_readout = 3.2

[[record]]
compound_structure = "COc1nccc(N2CCC3(CCN(C[C@H](O)c4ccc5c(c4C)COC5=O)CC3)C2=O)n1"
quantity_measured = "Vd"
quantitative_readout = 1.8

[[record]]
compound_structure = "Cc1nccc(N2CCC3(CCN(C[C@H](O)c4ccc5c(c4C)COC5=O)CC3)C2=O)n1"
quantity_measured = "Vd"
quantitative_readout = 4.4

[[record]]
compound_structure = "Cc1nsc(N2CCC3(CCN(C[C@H](O)c4ccc5c(c4C)COC5=O)CC3)C2=O)n1"
quantity_measured = "Vd"
quantitative_readout = 4.2


A: COc1nsc(N2CCC3(CCN(C[C@H](O)c4ccc5c(c4C)COC5=O)CC3)C2=O)n1
B: Cc1c([C@@H](O)CN2CCC3(CC2)CCN(c2ccncc2)C3=O)ccc2c1COC2=O
C: COc1cc(N2CCC3(CCN(C[C@H](O)c4ccc5c(c4C)COC5=O)CC3)C2=O)ccn1
Problem: Sort low-to-high on Vd, please. Answer format: the labels, ordered as requested.
Solution: A, C, B

====

test: Clearance in Wistar Han rat at 0.5 mg/kg, iv or 1 mg/kg, po; type: ADME, organism-based; details: in vivo
Quantity Measured: clearance (mL/min/kg)

[[record]]
compound_structure = "Cc1nsc(N2CCC3(CCN(C[C@H](O)c4ccc5c(c4C)COC5=O)CC3)C2=O)n1"
quantity_measured = "clearance"
quantitative_readout = 41


P: COc1nccc(N2CCC3(CCN(C[C@H](O)c4ccc5c(c4C)COC5=O)CC3)C2=O)n1
Q: COc1cc(N2CCC3(CCN(C[C@H](O)c4ccc5c(c4C)COC5=O)CC3)C2=O)ccn1
R: Cc1c([C@@H](O)CN2CCC3(CC2)CCN(c2ccncc2)C3=O)ccc2c1COC2=O
S: Cc1nccc(N2CCC3(CCN(C[C@H](O)c4ccc5c(c4C)COC5=O)CC3)C2=O)n1
Problem: Sort low-to-high on clearance, please. Answer format: the labels, ordered as requested.
Solution: P, Q, S, R

P: Cc1cc(N2CCC3(CCN(C[C@H](O)c4ccc5c(c4C)COC5=O)CC3)C2=O)sn1
Q: COc1nsc(N2CCC3(CCN(C[C@H](O)c4ccc5c(c4C)COC5=O)CC3)C2=O)n1
Problem: Looking at P and Q , which one comes out lower in clearance terms? In your reply, give the label of the chosen option.
Solution: Q

====

test: Oral bioavailability in Wistar Han rat at 1 mg/kg; format: ADME, organism-based; details: in vivo
Quantity Measured: bioavailability (%)

Worked set:
[[record]]
compound_structure = "COc1nccc(N2CCC3(CCN(C[C@H](O)c4ccc5c(c4C)COC5=O)CC3)C2=O)n1"
quantitative_readout = 80

[[record]]
compound_structure = "COc1cc(N2CCC3(CCN(C[C@H](O)c4ccc5c(c4C)COC5=O)CC3)C2=O)ccn1"
quantitative_readout = 66


I: Cc1nsc(N2CCC3(CCN(C[C@H](O)c4ccc5c(c4C)COC5=O)CC3)C2=O)n1
II: Cc1cc(N2CCC3(CCN(C[C@H](O)c4ccc5c(c4C)COC5=O)CC3)C2=O)sn1
Problem: Hi there! Just curious which has the higher bioavailability between I and II . In your reply, give the label of the chosen option.
Solution: I
(I: 106%, II: 45%)

a: COc1nsc(N2CCC3(CCN(C[C@H](O)c4ccc5c(c4C)COC5=O)CC3)C2=O)n1
b: Cc1nccc(N2CCC3(CCN(C[C@H](O)c4ccc5c(c4C)COC5=O)CC3)C2=O)n1
Problem: Hi there! Just curious which has the higher bioavailability between a and b . In your reply, give the label of the chosen option.
Solution: b

====

test: Fraction unbound in dog plasma; format: ADME, cell-free, Canis lupus familiaris
Quantity Measured: fraction unbound
// return just the number, without any unit appended

Item: Cc1c([C@@H](O)CN2CCC3(CC2)CCN(c2ccc(=O)n(C)n2)C3=O)ccc2c1COC2=O | fraction unbound: 0.405
